# target: chymotrypsin-like activity of 20S proteasome (Bos taurus, UniProt Q2TBX6+Q32KL2)
# Construct: was purified to homogeneity from bovine brain according to published methods; from tissue; host or cells: bovine brain
# experiment: 20S proteasome chymotryptic activity inhibition assay (Suc-Leu-Leu-Val-Tyr-AMC cleavage)
# Assay type: biochemical
# experimentalParameters: 2 μg 20S proteasome from bovine brain, 50 μM fluorogenic substrate, 15 minutes at 37° C., pH7.5
IC50 for the inhibition of the chymotrypsin-like activity of 20S proteasome listing for selected compounds.

Known IC50 for the inhibition of the chymotrypsin-like activity of 20S proteasome results, listed for orientation:
compound	target	measValue
CC(C)CC(NC(=O)C(NC(=O)C(=O)Cc1c[nH]c2ccccc12)C(C)O)C(=O)NC(CO)C(=O)O (stereo not shown)	chymotrypsin-like activity of 20S proteasome (Bos taurus, UniProt Q2TBX6+Q32KL2)	>10 µg/mL
CC(C)CC(NC(=O)C(NC(=O)C(=O)Cc1c[nH]c2ccccc12)C(C)C)C(=O)NC(C(=O)O)C(C)C (stereo not shown)	chymotrypsin-like activity of 20S proteasome (Bos taurus, UniProt Q2TBX6+Q32KL2)	>10 µg/mL
CC(C)CC(NC(=O)C(=O)Cc1c[nH]c2ccccc12)C(=O)NC(CC(C)C)C(=O)NC(Cc1ccc(O)cc1)C(=O)O (stereo not shown) [Compound 26]	chymotrypsin-like activity of 20S proteasome (Bos taurus, UniProt Q2TBX6+Q32KL2)	>10 µg/mL
CC(C)CC(NC(=O)C(=O)c1c[nH]c2ccccc12)C(=O)NC(CC(C)C)C(=O)NCC(=O)NCc1ccccc1 (stereo not shown)	chymotrypsin-like activity of 20S proteasome (Bos taurus, UniProt Q2TBX6+Q32KL2)	>10 µg/mL
CC(C)CC(NC(=O)CNC(=O)C(=O)Cc1c[nH]c2ccccc12)C(=O)NC(CC(=O)O)C(=O)O (stereo not shown)	chymotrypsin-like activity of 20S proteasome (Bos taurus, UniProt Q2TBX6+Q32KL2)	>10 µg/mL

Retrieve IC50 for the inhibition of the chymotrypsin-like activity of 20S proteasome measured for CCCCC(NC(=O)C(=O)Cc1c[nH]c2ccccc12)C(=O)NC(CC(C)C)C(=O)NC(CC(=O)O)C(=O)O (stereo not shown) and print it.
>10 µg/mL

Identify IC50 for the inhibition of the chymotrypsin-like activity of 20S proteasome associated with the compound CC(C)CC(NC(=O)C(NC(=O)C(=O)Cc1c[nH]c2ccccc12)C(C)O)C(=O)NC(Cc1ccc(O)cc1)C(=O)O (stereo not shown)
>10 µg/mL

---

# target: chymotrypsin-like activity of 20S proteasome (Bos taurus, UniProt Q2TBX6+Q32KL2)
# Construct: was purified to homogeneity from bovine brain according to published methods; from tissue; host or cells: bovine brain
# experiment: 20S proteasome chymotryptic activity inhibition assay (Suc-Leu-Leu-Val-Tyr-AMC cleavage)
# Type: biochemical
# experimentalParameters: 2 μg 20S proteasome from bovine brain, 50 μM fluorogenic substrate, 15 minutes at 37° C., pH7.5
pIC50: −log10 of the molar value.
Below, each of the compounds is paired with its reported pIC50 value.

compound	measValue
CC(C)CC(NC(=O)C(=O)Cc1c[nH]c2ccccc12)C(=O)NC(CC(C)C)C(=O)NC(C)C(=O)O (stereo not shown)	< 4.70
CC(C)C[C@@H](NC(=O)[C@H](Cc1ccccc1)NC(=O)C(=O)Cc1c[nH]c2ccccc12)C(=O)N[C@H](C(=O)O)C(C)C	< 4.75
CC(C)CC(NC(=O)C(=O)Cc1c[nH]c2ccccc12)C(=O)NC(CC(C)C)C(=O)NCC(=O)O (stereo not shown)	< 4.69
CC(C)CC(NC(=O)CCNC(=O)C(=O)Cc1c[nH]c2ccccc12)C(=O)NCC(=O)O (stereo not shown)	< 4.65
CC(C)CC(NC(=O)C(Cc1ccc(O)cc1)NC(=O)C(=O)Cc1c[nH]c2ccccc12)C(=O)NC(CCC(=O)O)C(=O)O (stereo not shown)	< 4.78
CCCCC(NC(=O)C(CC(C)C)NC(=O)C(CCC)NC(=O)C(=O)Cc1c[nH]c2ccccc12)C(=O)O (stereo not shown)	< 4.72
CC(C)C[C@@H](NC(=O)[C@H](CC(=O)O)NC(=O)C(=O)Cc1c[nH]c2ccccc12)C(=O)NCC(=O)O	< 4.69
CCCC(NC(=O)C(=O)Cc1c[nH]c2ccccc12)C(=O)NC(CC(C)C)C(=O)NC(C)C(=O)O (stereo not shown)	< 4.69
CC(C)C[C@H](NC(=O)[C@@H](CC(C)C)NC(=O)[C@H](CC(C)C)NC(=O)C(=O)Cc1c[nH]c2ccccc12)C(=O)O	< 4.73
CC(C)CC(NC(=O)C(Cc1ccc(-c2ccccc2)cc1)NC(=O)C(=O)Cc1c[nH]c2ccccc12)C(=O)NC(C)C(=O)O (stereo not shown)	< 4.79

Query pIC50 for CCCC[C@H](NC(=O)[C@@H](CC(C)C)NC(=O)[C@H](CC(=O)O)NC(=O)C(=O)Cc1c[nH]c2ccccc12)C(=O)O
< 4.74

State its pIC50 for this compound: CC(C)C[C@H](NC(=O)[C@@H](CC(C)C)NC(=O)[C@@H](CC(C)C)NC(=O)C(=O)Cc1c[nH]c2ccccc12)C(=O)O
< 4.73

Please supply the value of reported pIC50 for the item CC(C)C[C@H](NC(=O)C(=O)Cc1c[nH]c2ccccc12)C(=O)N[C@H](CC(C)C)C(=O)N[C@H](C(=O)O)C(C)C
< 4.72
